A collection of compounds and their measured TGI
Tested on: KM12 colon
Run Description: NCI tumour cell line growth inhibition, 48 h
Please state the figure in µM; there is no need to write the unit.

Below: 3 compounds and their reported TGI.
C=C1C(=O)C23C(O)C1CCC2C12CO[C@]3(O)[C@@H](O)C1C(C)(C)CCC2O (stereo partly drawn) : 31.7
CC[C@]12C=CCN3CC[C@]4(C(=C(C(=O)OC)C1)Nc1ccccc14)[C@@H]32 : 14.5
O=C1/C(=C\c2ccccc2)CN(C(=O)c2ccccc2F)C/C1=C\c1ccccc1 : 3.11

Now look at this one.
Data request: Dear colleague, I am looking for the recorded TGI of the following compound: COC(=O)/C=C1/OC(c2ccccc2)=CC1=O
Data returned: 32.4
